assay: NCI Yeast Anticancer Drug Screen. Data for the rad50 strain (AID 155);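 also: 0% = growth of vehicle-only cultures of the same strain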; conditions: S. cerevisiae rad50 strain growth inhibition; at 50.0 µM
The panel holds about 79,000 compounds, 15% with a hit somewhere; the sample as a whole holds those more often. Calls of active or inactive are those of the source. Rule as the data show it: active = growth inhibition above about 70%; inactive = the rest.
Return exactly one item of 1 = active, 0 = inactive

// return assay outcome for O/N=C1\CN2CCC1CC2
0

// return assay outcome for Cc1ccc(OP(=O)(Oc2ccc(C)c(C)c2)Oc2ccc(C)c(C)c2)cc1C
0

// return assay outcome for O=[N+]([O-])c1ccc([As](=O)(O)c2cccc([N+](=O)[O-])c2)cc1
0

// return assay outcome for Cc1cc2n[se]nc2cc1C
0

// return assay outcome for O=[N+]([O-])/C=C/c1ccc(Cl)cc1
1

// return assay outcome for COc1cc(OC)c(/C=C(\C)[N+](=O)[O-])cc1Br
1

// return assay outcome for CC1=C[C@H]2[C@@]3(O)[C@H](C)C[C@]4(OC(=O)C(C)C)[C@H]([C@@H]3C=C(CO)C[C@]2(O)C1=O)C4(C)C
0

// return assay outcome for O=[N+]([O-])/C=C\C(Cl)(Cl)Cl
1

// return assay outcome for CN(C)CCNC(=O)c1cc(COC(=O)N(CCCl)CCCl)ccc1[N+](=O)[O-]
0

// return assay outcome for O=NNc1ncc(Cl)cc1Cl
0

// return assay outcome for O=C1NC(=O)C2(OC3c4ccccc4C=CN3C3=C2C(=O)CCC3)C(=O)N1 (configuration not stated)
0

// return assay outcome for COC(=O)C1(C(=O)OC)Cc2ccc(C)cc2C2=C1C(=O)c1ccccc1C2=O
0

// return assay outcome for CCNCCC1(CC)C(=O)NC(=O)NC1=O
0

// return assay outcome for CCC[CH2][Sn]1([CH2]CCC)[O]c2ccccc2[O]1
1

// return assay outcome for CCO[C@@H]1c2cc3c(cc2[C@@H](c2cc(OC)c(O)c(OC)c2)[C@H]2C(=O)OC[C@@H]21)OCO3
1

// return assay outcome for COC(=O)C1c2c(C)cc3n2C(C=CC3)C1C(=O)OC (configuration not stated)
0

// return assay outcome for Nc1ccc([N+](=O)[O-])cc1[N+](=O)[O-]
0

// return assay outcome for O=[N+]([O-])c1ccc(NC(c2ccccc2)P(=O)(Oc2ccccc2)Oc2ccccc2)cc1 (configuration not stated)
0

// return assay outcome for O=C(O)c1ccccc1.O=C(O)c1ccccc1.O=C(O)c1ccccc1.O=C(O)c1ccccc1.[Cu].[Cu]
0

// return assay outcome for O=C(CCl)Nc1ccc(Cl)cc1
0

// return assay outcome for O=[As](O)(O)CCc1ccccc1
0

// return assay outcome for CCC(=O)O[C@H]1CC[C@H]2[C@@H]3CCC4=C/C(=N/NC(=O)c5cccc6c(=O)c7ccccc7[nH]c56)CC[C@]4(C)[C@H]3CC[C@]12C
0

Sourced from PubChem BioAssay (NCI)
